# assay_comment: NCI Yeast Anticancer Drug Screen. Data for the sgs1 mgt1 strain (AID 161);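 further: 0% = growth of cultures given vehicle only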
# experimental_conditions: S. cerevisiae sgs1 mgt1 strain, at 50.0 µM (retest, dose inferred, filed as 5.0), active compounds read high
Compounds without any hit were thinned out: in the full panel of roughly 79,000, 15% have a hit.
observable: growth inhibition (%)
Lab book: enter the figure in %, no units written.

molecule c1ccc(B2OC(c3ccccc3)C(c3ccccc3)O2)cc1 (stereo unspecified) , growth inhibition observed: -9

molecule COS(=O)c1cc(Cl)cc(Cl)c1OC(=O)CSSCC(=O)Oc1c(Cl)cc(Cl)cc1S(=O)OC (stereo unspecified) , growth inhibition observed: 99

molecule "Nc1ccc([N+](=O)[O-])cc1Nc1c2ccccc2nc2ccccc12" , growth inhibition observed: 27

molecule "CC(=O)Oc1c(-c2ccccc2)cc([N+](=O)[O-])cc1[N+](=O)[O-]" , growth inhibition observed: 88

molecule "COc1ccccc1C(=O)[O][Sn]([c]1ccccc1)([c]1ccccc1)[c]1ccccc1" , growth inhibition observed: 99

molecule "COC(=O)CCC(=O)NCCc1ccc2c([nH]c3ccccc32)c1C" , growth inhibition observed: 11

molecule "O=C(CC(=O)c1ccccc1)CC(=O)c1cccc(Cl)c1" , growth inhibition observed: 87

molecule "CSC(=Nc1ccccc1)NC(=O)Nc1ccc(Cl)cc1" , growth inhibition observed: -17

molecule COc1cccc(C2c3cc4c(cc3OC(N3CCCC3)C2C)OCO4)c1 (stereo unspecified) , growth inhibition observed: 54

molecule "O=C(CCn1[nH]c(=O)c(Cl)c(Cl)c1=O)NNc1ccc([N+](=O)[O-])cc1[N+](=O)[O-]" , growth inhibition observed: 18

molecule "CN(C)Cc1ccc2c(c1)c1c(n2Cc2ccccc2)CCCC1" , growth inhibition observed: 20

molecule CC(=O)Nc1nc(Cl)c2ncn(C3CC(OC(=O)c4ccc(C)cc4)C(COC(=O)c4ccc(C)cc4)O3)c2n1 (stereo unspecified) , growth inhibition observed: 3

molecule C/C(=C\N1CCN(c2ccc(Cl)cc2)C(C)C1)C(=O)c1ccccc1 (stereo unspecified) , growth inhibition observed: 89

molecule "COC(=O)/C(C(C)=O)=C(\OC(C)=O)c1ccc(OC)c(OC)c1" , growth inhibition observed: 88

molecule "Cc1cc2ccccc2c[n+]1Cc1ccc2ccccc2n1" , growth inhibition observed: 12

molecule CCCCN(CCCC)CC(O)c1cc(-c2ccc(Cl)cc2)nc2c(Cl)cccc12 (stereo unspecified) , growth inhibition observed: 12

All values here come from PubChem BioAssay (NCI).
